Reference source: patent US10538497B2

Target: IDO1 (Homo sapiens (Human), UniProt P14902)
Sequence (P14902 whole entry): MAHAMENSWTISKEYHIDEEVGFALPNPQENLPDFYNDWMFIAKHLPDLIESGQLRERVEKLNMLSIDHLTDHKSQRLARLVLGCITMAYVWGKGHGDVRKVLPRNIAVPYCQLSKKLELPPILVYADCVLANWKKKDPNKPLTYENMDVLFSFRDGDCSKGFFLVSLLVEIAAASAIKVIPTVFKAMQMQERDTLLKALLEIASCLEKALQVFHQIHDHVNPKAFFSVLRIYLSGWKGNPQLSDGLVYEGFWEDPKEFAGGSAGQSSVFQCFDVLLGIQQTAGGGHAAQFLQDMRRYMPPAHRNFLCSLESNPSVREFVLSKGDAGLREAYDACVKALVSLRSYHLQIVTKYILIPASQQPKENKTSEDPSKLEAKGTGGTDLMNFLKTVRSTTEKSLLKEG
Experiment: IDO1 Enzyme Assay
Details: read-out: IDO1 Enzyme Assay, IC50; HIS-tagged recombinant IDO1, 40 nM
measured property: pIC50
Notebook: values listed as pIC50 are -log10 of the concentration (mol/L).

Take a look at these entries with their results.
INSERT INTO results (smiles_input, measured) VALUES
  ('O=C(CCSc1nonc1/C(=N/O)Nc1ccc(F)c(Br)c1)NCCO', 7.52),
  ('OC[C@@H](O)CSc1nonc1/C(=N/O)Nc1ccc(F)c(C(F)F)c1', 7.16),
  ('CC(C)OC(=O)OCOP(=O)(CCSc1nonc1/C(=N/O)Nc1ccc(F)c(Br)c1)OCOC(=O)OC(C)C', 6.86),
  ('NC(=O)CSc1nonc1/C(=N/O)Nc1ccc(F)c(Br)c1', 7.29),
  ('N=C(N)NCCSc1nonc1/C(=N/O)Nc1ccc(F)c(Br)c1', 7.38),
  ('OC[C@@H](O)CSc1nonc1/C(=N/O)Nc1ccc(F)c(Cl)c1', 7.28);

Ask | Supply measured pIC50 of O=c1[nH]nc(CSc2nonc2/C(=N/O)Nc2ccc(F)c(Br)c2)[nH]1 in your reply.
Reply | 7.19

Ask | Supply measured pIC50 of Cc1cc(CSc2nonc2/C(=N/O)Nc2ccc(F)c(Br)c2)[nH]c(=O)c1 in your reply.
Reply | 7.14

Ask | Supply measured pIC50 of COCCNP(=O)(CCSc1nonc1/C(=N/O)Nc1ccc(F)c(Br)c1)NCCOC in your reply.
Reply | 7.01

Ask | Supply measured pIC50 of NS(=O)(=O)N1CCC(Sc2nonc2/C(=N/O)Nc2ccc(F)c(Br)c2)CC1 in your reply.
Reply | 7.01

Ask | Supply measured pIC50 of N/C(=C\[N+](=O)[O-])NCCSc1nonc1C(=NO)Nc1ccc(F)c(Br)c1 in your reply.
Reply | 7.08
